subjectOfTest: T1, Recombinant human PSGL-1(ECD)-hFc1 (R&D Systems, Cat. 3345-PS) (human, UniProt Q14242 42-305)
T1 construct: Bought; Gln42-Val295 counted on AAC50061; also called PSGL-1-Fc; PSGL-1-hFc1 chimera; not shown: human IgG1 Fc, Pro100-Lys330
T1 sequence: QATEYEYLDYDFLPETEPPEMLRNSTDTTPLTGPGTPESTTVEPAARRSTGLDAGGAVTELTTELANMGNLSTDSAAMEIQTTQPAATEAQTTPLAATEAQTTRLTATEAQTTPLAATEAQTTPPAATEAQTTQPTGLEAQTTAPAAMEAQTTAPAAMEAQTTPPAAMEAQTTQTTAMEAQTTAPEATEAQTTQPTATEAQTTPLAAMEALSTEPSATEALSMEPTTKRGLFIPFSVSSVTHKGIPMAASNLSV
assayComment: blocking ELISA vs VISTA-Fc, pH 6.0
pIC50: −log10 of the molar value.

[
  {
    "binder": "10F01 (antibody, IgG4, V domains shown) VH: EVQLVQSGGGLVQPGGSLRLSCAASGFTFSSYAMSWVRQAPGKGLEWVSALRGGDGGTYHADSVKGRFTISGDSSKNTLYLQMNSLRAEDTAVYYCARRMVGAAYAFDIWGQGTMVTVSS VL: LPVLTQPHSVSESPGKTVTISCTRSSGSIADNFVQWYRQRPGSAPTTVIYEGDQRPSGVPGRFSGSIDSSSNSASLTISGLQTDDEADYYCQSFDSYNRRTHVVFGGGTKLTVL",
    "pIC50": 8.10
  },
  {
    "binder": "03D07 (antibody, IgG4, V domains shown) VH: EVKLLESGGGLVQPGGSLRLSCAASGFTFSSYALSWVRQAPGKGLEWVSAISGSGGNTYYADSVKGRFTISRDNSKNTLYLQMNSLRAEDTAVYYCAKVVGATNYWGQGTLVTVSS VL: DIVMTQTPLSLPVTLGQPASISCRSSQSLVYSDGHTYLSWFHQRPGQSPRRLIYKVSIRDSGVPDRFSGSGSGTDFTLKISRVEAEDVGVYYCMQRLQIPLTFGGGTKVEIK",
    "pIC50": 8.10
  },
  {
    "binder": "19I01 (antibody, V domains shown, From mouse immunisation; only variable domains given; also called 19101) VH: EVQLVESGGGLVKPGGSRKLSCAASGFTFSDYGMHWVRQAPEKGLEWVAYISSGSSTIYYADTVKGRFTISRDNAKNTLFLQMTSLRSEDTAMYYCARGVDGYWGQGTTLTVSS VL: DVVMTQTPLSLPVSLGDQASISCRSSQSLVHSNGNTYLHWYLQKPGQSPKFLIYKVSNRFSGVPDRFSGSGSGTDFTLKISRVEAEDLGVYFCSQTTHVPLTFGAGTKLELK",
    "pIC50": 8.10
  }
]
